Values compiled from patent US7208505B2.

molecular target: human β3 adrenergic receptor (Homo sapiens); construct: expressed in transfected cells; test: whole cell receptor coupled c-AMP assay (Emax relative to isoproterenol); type: cell-based; details: CHO, % intrinsic activity: maximal response divided by isoproterenol maximal response times 100; transfected CHO cells; average of at least 3 runs
Measure name: Emax (%)
// return numeric value only (unit: %, not printed)

Consider the worked cases shown below.
CC(C)(Cc1c[nH]c2cc(/C=C/c3nnn[nH]3)ccc12)NC[C@H](O)COc1ccccc1-c1cccs1 [Example 252] = 82.3
CC(C)(Cc1c[nH]c2c(-c3ccc(C(=O)O)s3)cccc12)NC[C@H](O)COc1ccccc1-c1cccs1 [Example 250] = 92.5
CC(C)(Cc1c[nH]c2c(Oc3ccc(C(N)=O)cn3)cccc12)NC[C@H](O)COc1ccccc1-c1ccon1 [Example 245] = 63.3

// next entry
Prompt: # Emax lookup, item CC(C)(Cc1c[nH]c2c(CCC(=O)O)cccc12)NC[C@H](O)COc1ccccc1-c1cccs1 [Example 228]
Response: 79.5

* * *

target: human β3 adrenergic receptor (Homo sapiens, UniProt P13945); construct: expressed in transfected cells; test: whole cell receptor coupled c-AMP assay (Emax relative to isoproterenol); type: cell-based; conditions: % intrinsic activity: maximal response divided by isoproterenol maximal response times 100; transfected CHO cells; average of at least 3 runs
Sequence (P13945 whole entry): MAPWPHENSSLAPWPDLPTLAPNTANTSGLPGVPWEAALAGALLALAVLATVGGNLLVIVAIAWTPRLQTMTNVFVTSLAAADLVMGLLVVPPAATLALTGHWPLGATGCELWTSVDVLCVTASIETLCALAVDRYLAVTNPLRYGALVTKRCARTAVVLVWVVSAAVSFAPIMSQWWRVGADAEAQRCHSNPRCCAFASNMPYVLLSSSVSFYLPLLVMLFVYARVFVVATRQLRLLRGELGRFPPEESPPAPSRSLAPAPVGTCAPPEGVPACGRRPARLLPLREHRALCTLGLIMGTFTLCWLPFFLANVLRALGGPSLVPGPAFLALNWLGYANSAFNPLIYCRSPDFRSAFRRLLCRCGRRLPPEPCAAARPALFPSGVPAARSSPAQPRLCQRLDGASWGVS
Measure name: Emax (%) ± SEM
Numeric answer plus unit only.

CC(C)(Cc1c[nH]c2c(OCC#N)cccc12)NC[C@H](O)COc1ccccc1-c1ccsc1.Cl [Example 52] = 74.0 ± 3.1%

Prompt: Bench note: what Emax (%) ± SEM did C[C@H](Cn1ccc2ccccc21)NC[C@H](O)COc1ccccc1-c1ccon1 [Example 165] show?
Response: 37.1 ± 4.0%

Prompt: What would you report for CC(=O)c1ccc(-c2cccc3c(CC(C)(C)NC[C@H](O)COc4ccccc4-c4cccs4)c[nH]c23)cc1 [Example 48] ?
Response: 60.4 ± 6.0%

Prompt: Do the same for COC(=O)c1ccc(-c2cccc3c(CC(C)(C)NC[C@H](O)COc4ccccc4-c4cccs4)c[nH]c23)s1 [Example 181] please
Response: 39.6 ± 0.7%

Prompt: And for CC(C)(Cc1c[nH]c2ccccc12)NC[C@H](O)COc1ccccc1-c1csc(C#N)c1.O=C(O)C(F)(F)F [Example 15] ?
Response: 50.2 ± 7.3%

Prompt: Again, but for Cc1cc(-c2ccccc2OC[C@@H](O)CNC(C)(C)Cc2c[nH]c3ccccc23)cs1.O=C(O)C(F)(F)F [Example 17]
Response: 43.1 ± 3.0%

Prompt: Similarly, CC(C)(Cc1c[nH]c2cccc(F)c12)NC[C@H](O)COc1ccccc1-c1cccs1 [Example 162] ?
Response: 64.2 ± 7.6%

* * *

target: human β3 adrenergic receptor (Homo sapiens, UniProt P13945); construct: expressed in transfected cells; experiment: whole cell receptor coupled c-AMP assay (Emax relative to isoproterenol); assay type: cell-based; conditions: % intrinsic activity: maximal response divided by isoproterenol maximal response times 100; transfected CHO cells; average of at least 3 runs
Classification field: enter class 1 for Emax (%) ± SEM values not below 60%, class 0 for values below it.

C[C@H](NC[C@H](O)COc1ccccc1-c1cccs1)C(=O)N1CCc2ccccc21 = class 0
CC(C)(NC[C@H](O)COc1ccccc1-c1cccs1)C(=O)N1CCc2ccccc21 = class 0
CC(C)(Cc1c[nH]c2c(OCC(=O)NS(C)(=O)=O)cccc12)NC[C@H](O)COc1ccccc1-c1cccs1 = class 1
COC(=O)c1ccc(-c2cccc3c(CC(C)(C)NC[C@H](O)COc4ccccc4-c4cccs4)c[nH]c23)cc1 [Example 43] = class 1
CC(=O)Nc1ccc(-c2cccc3c(CC(C)(C)NC[C@H](O)COc4ccccc4-c4ccon4)c[nH]c23)cc1 = class 0
CC(C)(Cc1c[nH]c2c(CCC#N)cccc12)NC[C@H](O)COc1ccccc1-c1cccs1 = class 1
CC(C)(Cc1c[nH]c2c(C(=O)O)cccc12)NC[C@H](O)COc1ccccc1-c1ccc(S(N)(=O)=O)s1 = class 1
CC(C)(Cc1c[nH]c2c(F)cccc12)NC[C@H](O)COc1ccccc1-c1cccs1 = class 1

Prompt: Does the reported Emax (%) ± SEM for `CC(C)(Cc1c[nH]c2c(OCC(=O)O)cccc12)NC[C@H](O)COc1ccccc1-c1cccs1` fall at or above the 60% mark?
Response: class 1

Prompt: Record: `CC(C)(Cc1c[nH]c2cc(F)ccc12)NC[C@H](O)COc1ccccc1-c1nccs1`
Response: class 0

Prompt: Record: `CC(C)(Cc1c[nH]c2c(C(N)=O)cccc12)NC[C@H](O)COc1ccccc1-c1cccs1`
Response: class 0

Prompt: Follow-up entry: `CC(C)(Cc1c[nH]c2c(OCC#N)cccc12)NC[C@H](O)COc1ccccc1-c1nncs1`
Response: class 0

Prompt: Now this one: `C[C@H](Cn1ccc2c(OCC#N)cccc21)NC[C@H](O)COc1ccccc1-c1ccns1`
Response: class 0
